Read-out: Glutathione S-Transferase (GSTA2), GSTA2 (gene 2939)
Assay: LTEA_HepaRG_GSTA2: Life Technologies and Expression Analysis (LTEA) Assay for Glutathione S-Transferase (GSTA2) using HepaRG (AID 2283497)
Details: mRNA level, 48 h; actives raise or lower the signal
Active and inactive are the calls of the source. How the source made its calls: active means hit-call score of the fitted dose curve at least 0.9, where 1 is the maximum; inactive means score below 0.9.
measure-name: AC50

compound	AC50
C=CCOC(=O)c1ccccc1C(=O)OCC=C	inactive
Cc1ccc(C)c(O)c1C	inactive
Cc1nc(C)nc(N2C[C@@H](C)N(c3ccnc([C@@H](C)O)n3)[C@@H](C)C2)n1	25 µM (active)
Oc1ccc2ccccc2c1N=Nc1ccccc1	3.38 µM (active)
Cc1oc(-c2ccccc2)nc1CCOc1cccc2c1ccn2CCC(=O)O	81.5 µM (active)

For the 6 compounds below, give their AC50 values.
1. NCC1(Cc2noc(=O)[nH]2)CCCCC1
2. Nc1ccc2c(c1)C(=O)c1ccccc1C2=O
3. O=C(OCCCCCOC(=O)c1ccccc1)c1ccccc1
4. CN[C@H]1CC[C@@H](c2ccc(Cl)c(Cl)c2)c2ccc(S(N)(=O)=O)cc21
5. Cc1ccc(Cl)cc1
6. CC(=O)C(C)=CC1C(C)=CCCC1(C)C (configuration not stated)

Out:
1: inactive; 2: 10.2 µM (active); 3: inactive; 4: inactive; 5: inactive; 6: inactive

Would you mind giving AC50 for every compound in the list below?
1. CCOC(=O)CCC(=O)OCC
2. COc1cc(C=O)ccc1O
3. CC=Cc1ccc(O)c(OC)c1
4. CC(C)c1ccc(C(=O)N=C(N)N)cc1S(C)(=O)=O

Out:
1. inactive
2. inactive
3. inactive
4. inactive

I would be grateful if you could provide AC50 for each of the following entries.
1. C[C@]12C=CC(=O)C=C1CC[C@@H]1[C@@H]2C(=O)C[C@@]2(C)[C@H]1CC[C@]2(O)C(=O)CO
2. O=c1[nH]cc(F)c(=O)[nH]1
3. CC(=O)Oc1ccccc1C(=O)O
4. O=[N+]([O-])C(CO)(CO)CO
5. Cc1ccc(N(C)C)cc1

Out:
1: inactive; 2: 78 µM (active); 3: inactive; 4: inactive; 5: inactive

----------
Test: ATG_GLI_CIS: Attagene CIS-FACTORIAL HepG2 Assay for human Zinc Finger Protein GLI1 (AID 2282945)
Conditions: HepG2, Attagene cis-factorial reporter mRNA, GLI element; actives raise or lower the signal
The source made the active and inactive calls. Rule for the calls: active = hit-call score of the fitted dose curve at least 0.9, where 1 is the maximum; inactive = score below 0.9.
The reply should be one of these categories: active, inactive

compound	discrete-label
CCOc1ccc2c(c1)C(C)=CC(C)(C)N2	inactive
CCc1c(C(=O)NN2CCCCC2)nn(-c2ccc(Cl)cc2Cl)c1-c1ccc(Br)cc1	inactive
Clc1cc(Cl)c(Cl)cc1Cl	inactive
CCCCC(CC)COC(=O)CC(C(=O)OCC(CC)CCCC)S(=O)(=O)O (stereo not drawn)	inactive
COc1cc(S(=O)(=O)O)c(C)cc1N=Nc1c(O)ccc2cc(S(=O)(=O)O)ccc12	inactive
Cc1c(C(=O)O)c(O)cc2c1C(=O)c1c(O)c([C@@H]3O[C@H](CO)[C@@H](O)[C@H](O)[C@H]3O)c(O)c(O)c1C2=O	inactive
CC(=O)OC/C=C(\C)CCC=C(C)C	inactive
OC[C@@H](O)[C@@H](O)[C@H](O)[C@H](O)CO	inactive
CCOC(=O)C(C)(C)Oc1ccc(Cl)cc1	inactive
NS(=O)(=O)c1cc2c(cc1Cl)NCNS2(=O)=O	inactive

In: Look up the recorded call for `Oc1ccc2ccccc2c1N=Nc1ccccc1` in this test.
Out: inactive

In: Would you mind telling me which call this test gave `COc1ccc(S(=O)(=O)N2C(=O)[C@@](c3ccccc3OC)(N3C[C@H](O)C[C@H]3C(=O)N(C)C)c3cc(Cl)ccc32)c(OC)c1` ?
Out: active

----------
Assay: CEETOX_H295R_PROG: CeeTox H295R High-throughput Steroidogenesis Assay for Progesterone (PROG) (AID 2283442)
Conditions: actives raise or lower the signal
Protocol: CEETOX_H295R is a cell-based, multiplexed-readout assay that uses H295R, a human adrenal gland cell line, with measurements taken at 48 hours after chemical dosing in a 96-well plate.CEETOX_H295R_PROG is one of 23 assay component(s) measured or calculated from the CEETOX_H295R assay. […] This assay endpoint, CEETOX_H295R_PROG, was analyzed with bidirectional fitting relative to DMSO as the negative control and baseline of activity. […]
Calls of active or inactive are those of the source. Rule for the calls: active = hit-call score of the fitted dose curve at least 0.9, where 1 is the maximum; inactive = score below 0.9.
The categories you may choose from are yes (1) = active, no (0) = inactive

Consider the following illustrative entries.
smiles-input	discrete-label
Cc1cc(NC(=O)C(=O)O)cc(C)c1Oc1ccc(O)c2c1CCC2	yes (1)
COC(=O)c1ccc(O)cc1	yes (1)
Cc1cccc(Nc2cc(Cl)nc(SCC(=O)O)n2)c1C	yes (1)
COc1ccc(C)cc1N	yes (1)
COc1ccc2c(c1)c(CC(=O)O)c(C)n2C(=O)c1ccc(Cl)cc1	no (0)

Next molecule, please.
In: Record request — test call for `c1cc(-c2ccncc2)ccn1`
Out: no (0)

----------
Assay: CEETOX_H295R_ESTRONE: CeeTox H295R High-throughput Steroidogenesis Assay for Estrone (AID 2283441);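 further: estrone secreted into medium measured by LC-MS/MS after dansyl derivatization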
Conditions: actives raise or lower the signal
Calls of active or inactive are those of the source. Rule for the calls: active = hit-call score of the fitted dose curve at least 0.9, where 1 is the maximum; inactive = score below 0.9.
Pick one: 1 (yes) for active, 0 (no) for inactive

smiles-input	discrete-label
Cc1c(C(=O)O)c(O)cc2c1C(=O)c1c(O)c([C@@H]3O[C@H](CO)[C@@H](O)[C@H](O)[C@H]3O)c(O)c(O)c1C2=O	0 (no)
C[C@]12C=CC(=O)C=C1CC[C@@H]1[C@@H]2C(=O)C[C@@]2(C)[C@H]1CC[C@]2(O)C(=O)CO	0 (no)
Oc1ccc2c(c1)OC[C@@H](N1CCC(O)(c3ccc(F)cc3)CC1)[C@H]2O	0 (no)
Nc1ccccc1N	0 (no)
Cc1cccc(Nc2cc(Cl)nc(SCC(=O)O)n2)c1C	0 (no)
c1cc(-c2ccncc2)ccn1	0 (no)

Query compound follows.
In: Assay outcome for `Oc1ccc2ccccc2c1N=Nc1ccccc1` : what was it?
Out: 1 (yes)

----------
Read-out: C-C motif chemokine 2 (Homo sapiens)
Assay: BSK_KF3CT_MCP1: BioMAP Diversity Plus: KF3CT Assay for Monocyte Chemoattractant Protein 1 (MCP1/CCL2) Biomarker Activity (AID 2283073)
Conditions: primary human keratinocytes with fibroblasts; actives raise or lower the signal
Active and inactive are the calls of the source. How the source made its calls: active means hit-call score of the fitted dose curve at least 0.9, where 1 is the maximum; inactive means score below 0.9.
// allowed return values: 1.0 (active), 0.0 (inactive)

Illustrative cases are given below, each with its answer.
compound	discrete-label
C[C@]12C=CC(=O)C=C1CC[C@@H]1[C@@H]2C(=O)C[C@@]2(C)[C@H]1CC[C@]2(O)C(=O)CO	0.0
CCCCC(CC)COC(=O)CC(C(=O)OCC(CC)CCCC)S(=O)(=O)O (configuration not stated)	1.0
O=[N+]([O-])C(CO)(CO)CO	0.0
CC1(C)NC(=O)NC1=O	0.0
Cc1cccc([N+](=O)[O-])c1C	0.0

Now for a further compound.
In: Per the records of this test, what outcome belongs to CC1(C)CC(N=C=O)CC(C)(CN=C=O)C1 (configuration not stated) ?
Out: 0.0

----------
Assay: APR_HepG2_CellCycleArrest_72hr: Apredica 72-hour HepG2 Assay for Cell Cycle Arrest (AID 2282914)
Conditions: high-content imaging, actives raise or lower the signal
Active and inactive are the calls of the source. How the source made its calls: active means hit-call score of the fitted dose curve at least 0.9, where 1 is the maximum; inactive means score below 0.9.
measure-name: outcome

smiles-input	measure-name	test-result
C[C@]12C=CC(=O)C=C1CC[C@@H]1[C@@H]2C(=O)C[C@@]2(C)[C@H]1CC[C@]2(O)C(=O)CO	outcome	inactive
CCOC(=O)CCC(=O)OCC	outcome	inactive
C=CCOC(=O)c1ccccc1C(=O)OCC=C	outcome	inactive

----------
Assay: BSK_4H_Eotaxin3: BioMAP Diversity Plus: 4H Assay for Eotaxin 3 Biomarker Activity (AID 2283000);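 on outcome: CCL26 protein level quantified by ELISA in parallel with SRB cytotoxicity check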
Conditions: primary human endothelial cells (HUVEC); actives raise or lower the signal
The source made the active and inactive calls. How the source made its calls: active means hit-call score of the fitted dose curve at least 0.9, where 1 is the maximum; inactive means score below 0.9.
The reply should name one outcome from yes (active), no (inactive)

Consider the following illustrative entries.
smiles-input	discrete-label
Cc1cc(=O)[nH]c(=S)[nH]1	no
CCCc1cc(=O)[nH]c(=S)[nH]1	yes
C[Si]1(C)O[Si](C)(C)O[Si](C)(C)O[Si](C)(C)O1	no

In: Which outcome was entered for the compound `COc1cc(-c2nc(NC(=O)c3cc4cc(C)cc(C)c4n3CC(=O)O)sc2CCC2CCCCC2)c(OC)cc1Cl` in this test?
Out: yes

In: Which outcome was entered for the compound `CNCc1cc(F)ccc1Oc1ccc(Cl)c(Cl)c1` in this test?
Out: no

In: Tell me the assay call for `CCCCCCCCCCC` please.
Out: no

----------
Test: ATG_AP_2_CIS: Attagene CIS-FACTORIAL HepG2 Assay for human Activator Protein 2 (AP-2) (AID 2282932)
Details: HepG2 AP-2 cis-reporter, Attagene transcription factor profiling; actives raise or lower the signal
The source made the active and inactive calls. How the source made its calls: active means hit-call score of the fitted dose curve at least 0.9, where 1 is the maximum; inactive means score below 0.9.
Return exactly one item of active, inactive

Completed entries (count: 3):
smiles-input	discrete-label
COc1ccc(S(=O)(=O)N2C(=O)[C@@](c3ccccc3OC)(N3C[C@H](O)C[C@H]3C(=O)N(C)C)c3cc(Cl)ccc32)c(OC)c1	inactive
O=C(N[C@@H](Cc1ccccc1)[C@@H](O)C(=O)N1C[C@@H](O)[C@@H](O)C1)c1cc2cc(Cl)ccc2[nH]1	active
COCCOCCOC	inactive

In: Entry `Cc1ccc(C)c(C)c1` : call = ?
Out: inactive

In: // outcome(item) with item = `Nc1nc(N)c2nc(CNc3ccc(C(=O)N[C@@H](CCC(=O)O)C(=O)O)cc3)cnc2n1`
Out: inactive

In: What did the test return for `Oc1ccc2c(c1)OC[C@@H](N1CCC(O)(c3ccc(F)cc3)CC1)[C@H]2O` ?
Out: inactive

In: Which outcome was entered for the compound `CCCCN(CCCC)CCCC` in this test?
Out: inactive

In: Tell me the recorded outcome of this test for `NCC1(Cc2noc(=O)[nH]2)CCCCC1` .
Out: inactive

In: Record lookup: outcome of this test for `COc1ccc2c(c1)c(CC(=O)O)c(C)n2C(=O)c1ccc(Cl)cc1` ?
Out: inactive

In: # fetch the recorded call for `COC(=O)c1ccc(O)cc1` here
Out: inactive
